target: human HER2/ErbB2 (Homo sapiens); assay: HTScan Receptor Kinase Assay, HER2/ErbB2;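 note: europium time-resolved fluorescence detection of anti-phosphotyrosine antibody binding to biotinylated FLT3 (Tyr589) peptide phosphorylated by the kinase, 30 min reaction at room temperature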
Sequence (P04626 676-1255): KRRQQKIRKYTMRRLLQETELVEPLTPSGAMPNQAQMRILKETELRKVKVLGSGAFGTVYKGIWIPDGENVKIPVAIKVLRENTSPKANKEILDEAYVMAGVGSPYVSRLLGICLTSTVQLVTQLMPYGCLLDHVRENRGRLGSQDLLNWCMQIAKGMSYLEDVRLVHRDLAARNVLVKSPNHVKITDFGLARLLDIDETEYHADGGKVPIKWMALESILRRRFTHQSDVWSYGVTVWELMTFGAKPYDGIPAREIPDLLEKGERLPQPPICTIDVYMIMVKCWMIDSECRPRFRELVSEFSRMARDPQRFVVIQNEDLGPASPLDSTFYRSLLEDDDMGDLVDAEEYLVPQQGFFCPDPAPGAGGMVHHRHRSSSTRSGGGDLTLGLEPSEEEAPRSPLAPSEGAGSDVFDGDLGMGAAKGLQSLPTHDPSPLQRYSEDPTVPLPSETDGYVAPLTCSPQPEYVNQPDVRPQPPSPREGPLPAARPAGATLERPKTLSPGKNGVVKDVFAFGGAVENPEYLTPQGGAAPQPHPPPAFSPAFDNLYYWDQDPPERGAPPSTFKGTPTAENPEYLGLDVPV
Quantity name: IC50

Answered examples (5):
C[C@@H](Nc1ncnc2[nH]c(-c3ccc(CN4CCN(CCC(=O)NO)CC4)cc3)cc12)c1ccccc1 [Compound 12]: < 100 nM
C[C@@H](Nc1ncnc2[nH]c(-c3ccc(CN4CCN(CCCCC(=O)NO)CC4)cc3)cc12)c1ccccc1 [Compound 14]: 100 to 1000 nM
C[C@@H](Nc1ncnc2[nH]c(-c3ccc(CN4CCN(CCCCCCC(=O)NO)CC4)cc3)cc12)c1ccccc1 [Compound 16]: < 100 nM
C[C@@H](Nc1ncnc2[nH]c(-c3ccc(NCCCCCCC(=O)NO)cc3)cc12)c1ccccc1 [Compound 67]: < 100 nM
O=C(CCCCCCOc1ccc(-c2cc3c(NCc4ccccc4)ncnc3[nH]2)cc1)NO [Compound 38]: 1000 to 10000 nM

Look up IC50: C[C@@H](Nc1ncnc2[nH]c(-c3ccc(OCCCCC(=O)NO)cc3)cc12)c1ccccc1 [Compound 20]
100 to 1000 nM

// returns reported IC50 for input C[C@@H](Nc1ncnc2[nH]c(-c3ccc(OCCCCCC(=O)NO)cc3)cc12)c1ccccc1 [Compound 21]
100 to 1000 nM

###

tested on: HDAC; experiment: HDAC fluorimetric assay kit (AK-500, Biomol), HeLa nuclear extract; format: biochemical
pIC50: −log10 of the molar value.
Quantity name: pIC50

Study these solved cases before continuing.
C[C@@H](Nc1ncnc2c1cc(-c1ccc(CNCCN)cc1)n2CCCCCC(=O)NO)c1ccccc1: 6.00 to 7.00
O=C(CCCCCN1CCN(Cc2ccc(-c3cc4c(NCc5ccccc5)ncnc4[nH]3)cc2)CC1)NO: 6.00 to 7.00
C[C@@H](Nc1ncnc2[nH]c(-c3ccc(C(=O)NCCNCCC(=O)NO)cc3)cc12)c1ccccc1: > 7.00
C[C@@H](Nc1ncnc2[nH]c(-c3ccc(OCCNCCCCCC(=O)NO)cc3)cc12)c1ccccc1: 6.00 to 7.00
C[C@@H](Nc1ncnc2[nH]c(-c3ccc(NC(=O)Nc4ccc(/C=C/C(=O)NO)cc4)cc3)cc12)c1ccccc1: 5.00 to 6.00

Now look at this entry.
Give the measured pIC50 of `O=C(NO)c1ccc(-c2cc3c(NCc4ccccc4)ncnc3[nH]2)cc1` .
6.00 to 7.00
